The entries below are paired with their reported pIC50.
Assayed Target: TYK2 (Homo sapiens)
Sequence (P29597 whole entry): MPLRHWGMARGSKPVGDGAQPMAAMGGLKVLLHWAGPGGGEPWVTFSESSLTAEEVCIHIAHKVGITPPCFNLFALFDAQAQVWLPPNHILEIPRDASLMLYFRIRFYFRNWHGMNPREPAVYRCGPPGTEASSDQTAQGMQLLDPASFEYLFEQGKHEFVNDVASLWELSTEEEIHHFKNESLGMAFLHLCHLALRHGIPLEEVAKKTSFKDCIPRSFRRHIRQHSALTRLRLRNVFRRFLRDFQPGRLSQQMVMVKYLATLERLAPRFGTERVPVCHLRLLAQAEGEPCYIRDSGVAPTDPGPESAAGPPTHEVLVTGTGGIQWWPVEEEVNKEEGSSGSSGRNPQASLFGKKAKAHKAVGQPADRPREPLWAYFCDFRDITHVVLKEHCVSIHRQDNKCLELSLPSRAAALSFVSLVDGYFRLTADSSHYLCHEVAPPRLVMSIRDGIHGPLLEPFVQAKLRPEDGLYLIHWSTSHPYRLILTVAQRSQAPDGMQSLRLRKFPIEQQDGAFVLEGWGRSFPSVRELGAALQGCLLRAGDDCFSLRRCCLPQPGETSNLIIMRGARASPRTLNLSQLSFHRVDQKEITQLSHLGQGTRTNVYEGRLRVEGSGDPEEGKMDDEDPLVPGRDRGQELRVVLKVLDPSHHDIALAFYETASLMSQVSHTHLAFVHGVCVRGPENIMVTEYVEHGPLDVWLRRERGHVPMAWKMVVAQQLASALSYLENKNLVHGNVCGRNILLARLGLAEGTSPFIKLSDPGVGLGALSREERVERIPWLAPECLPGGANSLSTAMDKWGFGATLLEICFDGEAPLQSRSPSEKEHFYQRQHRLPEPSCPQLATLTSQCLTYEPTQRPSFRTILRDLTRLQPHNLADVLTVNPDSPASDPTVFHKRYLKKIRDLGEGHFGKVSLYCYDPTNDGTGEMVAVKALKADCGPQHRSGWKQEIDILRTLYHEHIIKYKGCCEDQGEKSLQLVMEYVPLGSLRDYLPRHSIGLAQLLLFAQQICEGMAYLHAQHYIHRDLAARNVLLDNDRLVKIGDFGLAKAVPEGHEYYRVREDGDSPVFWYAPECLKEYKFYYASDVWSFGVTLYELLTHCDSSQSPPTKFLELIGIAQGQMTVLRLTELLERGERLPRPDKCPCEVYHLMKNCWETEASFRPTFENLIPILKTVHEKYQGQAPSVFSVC
Assay Text: TYK2 kinase inhibition (Table A1)
Format: biochemical
Assay Conditions: Table B1
Where a name gives a salt, the structure may show the parent alone.
Keep it numeric: pIC50 is minus log10 of the concentration in mol/L.

// worked examples, pIC50 included
CN(C(=O)Nc1ccc2cc1CCc1cncc(c1)Nc1ncc(Cl)c(n1)N2)[C@H]1CCN(Cc2ccccc2)C1; 6.39
Cn1ccc(C(=O)N2CC[C@H](NC(=O)Nc3ccc4cc3CCc3cccc(c3)Nc3ncc(Cl)c(n3)N4)C2)n1 [Example B232, bis(trifluoroacetate)]; 7.59

// below: pIC50 requested for another molecule
stdin: For the molecule CC(=O)Nc1ccc(C(=O)Nc2ccc3cc2CCc2cccc(c2)Nc2ncc(Cl)c(n2)N3)cc1 [Example B45, trifluoroacetate] , what pIC50 is on record?
stdout: 9.28
